target: PERK kinase (Homo sapiens, UniProt Q9NZJ5, A704S)
Construct: GST (with thrombin site LVPRGS)
Sequence (Q9NZJ5 with tags, fused parts or gaps A704S): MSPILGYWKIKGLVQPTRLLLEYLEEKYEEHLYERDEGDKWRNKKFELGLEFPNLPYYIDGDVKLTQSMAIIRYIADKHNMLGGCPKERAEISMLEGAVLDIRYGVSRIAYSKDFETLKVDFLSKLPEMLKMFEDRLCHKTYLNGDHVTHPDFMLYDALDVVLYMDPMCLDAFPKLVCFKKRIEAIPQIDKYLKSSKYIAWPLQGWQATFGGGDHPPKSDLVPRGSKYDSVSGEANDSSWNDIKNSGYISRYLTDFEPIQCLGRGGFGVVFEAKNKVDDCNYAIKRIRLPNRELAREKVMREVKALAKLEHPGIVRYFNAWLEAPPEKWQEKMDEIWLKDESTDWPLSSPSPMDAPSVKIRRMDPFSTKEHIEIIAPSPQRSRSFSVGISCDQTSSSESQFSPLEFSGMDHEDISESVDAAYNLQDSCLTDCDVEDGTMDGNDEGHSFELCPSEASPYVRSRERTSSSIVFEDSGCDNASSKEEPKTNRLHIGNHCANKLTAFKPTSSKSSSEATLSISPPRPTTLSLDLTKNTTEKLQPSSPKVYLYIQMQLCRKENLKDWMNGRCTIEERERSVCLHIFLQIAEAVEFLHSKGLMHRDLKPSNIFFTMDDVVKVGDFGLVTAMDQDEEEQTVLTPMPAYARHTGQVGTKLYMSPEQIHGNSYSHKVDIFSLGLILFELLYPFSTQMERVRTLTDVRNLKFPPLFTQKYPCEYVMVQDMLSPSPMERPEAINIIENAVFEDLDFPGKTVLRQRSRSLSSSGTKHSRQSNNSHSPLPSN
experiment notes: Biochemical assay for PERK (coupled pyruvate kinase/lactate dehydrogenase assay)
assay context: 10 nM PERK, 1 mM ATP, reaction rate 2-3 h time frame, 30° C.
Description: Biochemical Assay for PERK Activity of PERK kinase was determined spectroscopically using a coupled pyruvate kinase/lactate dehydrogenase assay that continuously monitors the ATP hydrolysis-dependent oxidation of NADH (Science, 2000, 289, 1938-1942). […] Inhibition of PERK was measured by adding serial diluted test compound (final assay concentration of 1% DMSO). A decrease in absorption at 340 nm was monitored continuously for 6 hours at 30° C. on a multi-mode microplate reader (BioTek). […]
Please provide measured IC50 for the entries that follow.

Cn1cc(-c2nc(-c3cccc(NS(=O)(=O)c4cc(Cl)cc(CO)c4Cl)c3F)c3c(N)nccn23)cn1 [Example 20]: ≤ 0.1 µM
Cn1cc(-c2cccc(NS(=O)(=O)c3cc(F)c(Br)cc3F)c2F)c2c(N)ncnc21 [Example 38]: ≤ 0.1 µM
CC(=O)OCc1cc(Cl)cc(S(=O)(=O)Nc2cccc(-c3nc(C(C)(C)C)n4ccnc(N)c34)c2F)c1Cl [Example 30]: 0.1 to 0.5 µM
Cc1nc(-c2cccc(NS(=O)(=O)c3cc(Cl)cc(COC(=O)C4CC4)c3Cl)c2F)c2c(N)nccn12 [Example 31]: 1 to 10 µM
COCCNc1nc(-c2cccc(NS(=O)(=O)c3cc(Cl)cc(CO)c3Cl)c2F)c2c(N)nccn12 [Example 23]: ≤ 0.1 µM
Nc1nccn2c(-c3cn[nH]c3)nc(-c3cccc(NS(=O)(=O)c4cc(Cl)cc(CO)c4Cl)c3F)c12 [Example 19]: ≤ 0.1 µM
CCC(C)(C)C(=O)OCc1cc(Cl)cc(S(=O)(=O)Nc2cccc(-c3nc(C)n4ccnc(N)c34)c2F)c1Cl [Example 29]: 1 to 10 µM
COc1c(CO)cc(Cl)cc1S(=O)(=O)Nc1cccc(-c2nc(C)n3ccnc(N)c23)c1F [Example 11]: 0.1 to 0.5 µM

Provide IC50 values for the following items, in order.
1. Cc1nc(-c2cccc(NS(=O)(=O)c3cc(F)cc(CO)c3Cl)c2F)c2c(N)nccn12 [Example 8]
2. COc1ncc(Cl)cc1S(=O)(=O)Nc1cccc(-c2cn(C)c3ncnc(N)c23)c1F [Example 45]
3. COC(=O)c1cc(Cl)cc(S(=O)(=O)Nc2cccc(-c3cn(C)c4ncnc(N)c34)c2F)c1Cl [Example 40]
4. CCC(=O)OCc1cc(Cl)cc(S(=O)(=O)Nc2cccc(-c3nc(C)n4ccnc(N)c34)c2F)c1Cl [Example 32]
5. CC(C)c1nc(-c2cccc(NS(=O)(=O)c3cc(Cl)cc(CO)c3Cl)c2F)c2c(N)nccn12 [Example 16]
6. COc1cc(F)c(S(=O)(=O)Nc2cccc(-c3cn(C)c4ncnc(N)c34)c2F)cc1Cl [Example 37]

Reply:
≤ 0.1 µM
≤ 0.1 µM
≤ 0.1 µM
0.5 to 1 µM
≤ 0.1 µM
≤ 0.1 µM

IC50 reported for this compound Cn1cc(-c2cccc(NS(=O)(=O)c3cc(Cl)cc(/C=N\O)c3Cl)c2F)c2c(N)ncnc21 [Example 52] : ≤ 0.1 µM

---

Tested on: ASNase treated CCRF-CEM cells
experiment notes: CCRF-CEM ASNase cell proliferation assay, phenotypic assay for cellular inhibition of GCN2
Type: cell-based
assay context: Homo sapiens, 1 mU/mL ASNase, 72 h, resazurin
assay endpoint: IC50

COCc1cc(Cl)cc(S(=O)(=O)Nc2cccc(-c3nc(C)n4ccnc(N)c34)c2F)c1Cl [Example 48]: 1000 to 10000 nM
CC(C)(C)c1nc(-c2cccc(NS(=O)(=O)c3cc(Cl)cc(CO)c3Cl)c2F)c2c(N)nccn12 [Example 9]: 100 to 500 nM
Cc1nc(-c2cccc(NS(=O)(=O)c3cc(Cl)cc(CO)c3F)c2F)c2c(N)nccn12 [Example 7]: 1000 to 10000 nM
Cc1nc(-c2cccc(NS(=O)(=O)c3cc(Cl)cc(CO)c3Cl)c2F)c2c(N)nccn12 [Example 2]: 100 to 500 nM
COc1ncc(Cl)cc1S(=O)(=O)Nc1cc(F)c(F)c(-c2nc(C)n3ccnc(N)c23)c1 [Example 28]: 1000 to 10000 nM

Hi! Can you tell me IC50 for each of these compounds?
1. COc1ncc(Cl)cc1S(=O)(=O)Nc1cccc(-c2cn(C)c3ncnc(N)c23)c1F [Example 45]
2. COCCNc1nc(-c2cccc(NS(=O)(=O)c3cc(Cl)cc(CO)c3Cl)c2F)c2c(N)nccn12 [Example 23]
3. CO/N=C\c1cc(Cl)cc(S(=O)(=O)Nc2cccc(-c3cn(C)c4ncnc(N)c34)c2F)c1Cl [Example 53]

Reply:
1. 1000 to 10000 nM
2. 100 to 500 nM
3. 1000 to 10000 nM

---

target: GCN2 kinase (Homo sapiens)
Construct: G556E with a
experiment notes: Biochemical assay for GCN2 (TR-FRET kinase activity assay)
assay context: 2 nM GCN2, 1 mM ATP, 3-hour incubation
assay endpoint: IC50

Cn1cc(-c2cccc(NS(=O)(=O)c3cc(Cl)cc(CN)c3Cl)c2F)c2c(N)ncnc21: 1000 to 10000 nM

Record IC50 for all entries; do not skip any.
1. CSc1nc(-c2cccc(NS(=O)(=O)c3cc(Cl)cc(CO)c3Cl)c2F)c2c(N)nccn12
2. Cc1nc(-c2cccc(NS(=O)(=O)c3cc(Cl)cc(CO)c3F)c2F)c2c(N)nccn12
3. CNCc1cc(Cl)cc(S(=O)(=O)Nc2cccc(-c3cn(C)c4ncnc(N)c34)c2F)c1Cl

Reply:
["≤ 100 nM", "500 to 1000 nM", "1000 to 10000 nM"]

---

Tested on: ASNase treated CCRF-CEM cells
experiment notes: CCRF-CEM ASNase cell proliferation assay, phenotypic assay for cellular inhibition of GCN2
Type: cell-based
assay context: Homo sapiens, 1 mU/mL ASNase, 72 h, resazurin
pIC50: −log10 of the molar value.
Give measured pIC50 for each item. Keep answers brief.

Study these solved cases before continuing.
CNc1nc(-c2cccc(NS(=O)(=O)c3cc(Cl)cc(CO)c3Cl)c2F)c2c(N)nccn12 [Example 26]: 6.30 to 7.00
Cn1cc(-c2cccc(NS(=O)(=O)c3ccc(Cl)c(CO)c3F)c2F)c2c(N)ncnc21 [Example 5]: 5.00 to 6.00
COc1c(CO)cc(Cl)cc1S(=O)(=O)Nc1cccc(-c2nc(C)n3ccnc(N)c23)c1F [Example 11]: 5.00 to 6.00
Cn1cc(-c2nc(-c3cccc(NS(=O)(=O)c4cc(Cl)cc(CO)c4Cl)c3F)c3c(N)nccn23)cn1 [Example 20]: ≥ 7.00
Cc1cc(-c2cccc(NS(=O)(=O)c3cc(Cl)cc(CO)c3Cl)c2F)c2c(N)ncnn12 [Example 13]: 6.30 to 7.00

Please give pIC50 for each item listed below.
1. CCC(C)(C)C(=O)OCc1cc(Cl)cc(S(=O)(=O)Nc2cccc(-c3nc(C)n4ccnc(N)c34)c2F)c1Cl [Example 29]
2. CC(C)c1nc(-c2cccc(NS(=O)(=O)c3cc(Cl)cc(CO)c3Cl)c2F)c2c(N)nccn12 [Example 16]

Reply:
5.00 to 6.00
≥ 7.00

---

target: GCN2 kinase (Homo sapiens, UniProt Q9P2K8)
Construct: G556E with a
experiment notes: Biochemical assay for GCN2 (TR-FRET kinase activity assay)
assay context: 2 nM GCN2, 1 mM ATP, 3-hour incubation
Method: Biochemical assay for GCN2 Activity of GCN2 kinase was determined using a TR-FRET kinase activity assay (e.g., Analytical Biochemistry, 2006, 356, 108-116). […] Inhibition of GCN2 was measured by adding serial diluted test compound (final assay concentration of 0.5% DMSO) followed by a 3-hour incubation. […] After a 60 min incubation at room temperature, TR-FRET was monitored using an excitation wavelength of 340 nm and emission wavelengths of 490 nm and 520 nm. […]
assay endpoint: IC50

COC(=O)c1cccc(S(=O)(=O)Nc2cccc(-c3cn(C)c4ncnc(N)c34)c2F)c1Cl: 1000 to 10000 nM
Cc1nc(-c2cccc(NS(=O)(=O)c3cc(F)cc(CO)c3Cl)c2F)c2c(N)nccn12: 500 to 1000 nM
CO/N=C\c1cc(Cl)cc(S(=O)(=O)Nc2cccc(-c3cn(C)c4ncnc(N)c34)c2F)c1Cl: 1000 to 10000 nM
Cc1nc(-c2cccc(NS(=O)(=O)c3cc(Cl)cc(CO)c3Cl)c2F)c2c(N)nccn12: 100 to 500 nM
CCNc1nc(-c2cccc(NS(=O)(=O)c3cc(Cl)cc(CO)c3Cl)c2F)c2c(N)nccn12: ≤ 100 nM

Fill in IC50 for each of the 3 molecules listed.
1. Nc1ncnn2ccc(-c3cccc(NS(=O)(=O)c4cc(Cl)cc(CO)c4Cl)c3F)c12
2. COCCNc1nc(-c2cccc(NS(=O)(=O)c3cc(Cl)cc(CO)c3Cl)c2F)c2c(N)nccn12
3. Cc1nc(-c2cc(NS(=O)(=O)c3cc(Cl)cc(CO)c3Cl)cc(F)c2F)c2c(N)nccn12

Reply:
1: 100 to 500 nM; 2: 100 to 500 nM; 3: ≤ 100 nM
